# experimental_system: T1, 4H3974-bH
# T1 chain: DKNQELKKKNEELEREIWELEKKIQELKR
# test: two-hybrid library CCNG1;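 also: natural log of median RNA to DNA barcode read ratio; higher means stronger binding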
Please note: Criterion met applies when interaction score is 0.03 or greater, and Criterion not met applies otherwise.

[[record]]
binder = "DENQELKKKIEELKRKIWELKKENQELER [4H1899-bH]"
class_assignment = "Criterion met"

[[record]]
binder = "DKNQELKKKIEELERENWELEKEIQELKR [4H3858-bH]"
class_assignment = "Criterion not met"

[[record]]
binder = "DENQELEKKIEELKREIWELKKKNQELER [4H1359-bH]"
class_assignment = "Criterion met"

[[record]]
binder = "DENQELKKKNEELKREIWELEKEIQELER [4H1985-bH]"
class_assignment = "Criterion met"

